meta.source: paper PMC3103606

Biological target: UniProtKB P30838
Test: ALDH3A1 esterase assay
Type: biochemical
Details: read-out: (Esterase assay) IC50; ALDH3A1, 0.8 mM para-nitrophenylacetate, pH 7.5
Overview of reported IC50 across a group of molecules:
measuredEndpoint: IC50 (µM)

>>> number("CCOC(=O)CN1C(=O)C(O)(CC(=O)c2ccncc2)c2ccccc21 (stereo not drawn)")
2.2
>>> number("CCSc1nnc2c(n1)OC(C(=O)c1ccc(OC)cc1)Nc1ccccc1-2 (stereo not drawn)")
1
>>> number("CC(=O)Nc1ccc(Nc2ccc(S(C)(=O)=O)cc2[N+](=O)[O-])cc1")
0.5

---

Target: ALDH3A1 (Homo sapiens, UniProt P30838)
Sequence (P30838 whole entry): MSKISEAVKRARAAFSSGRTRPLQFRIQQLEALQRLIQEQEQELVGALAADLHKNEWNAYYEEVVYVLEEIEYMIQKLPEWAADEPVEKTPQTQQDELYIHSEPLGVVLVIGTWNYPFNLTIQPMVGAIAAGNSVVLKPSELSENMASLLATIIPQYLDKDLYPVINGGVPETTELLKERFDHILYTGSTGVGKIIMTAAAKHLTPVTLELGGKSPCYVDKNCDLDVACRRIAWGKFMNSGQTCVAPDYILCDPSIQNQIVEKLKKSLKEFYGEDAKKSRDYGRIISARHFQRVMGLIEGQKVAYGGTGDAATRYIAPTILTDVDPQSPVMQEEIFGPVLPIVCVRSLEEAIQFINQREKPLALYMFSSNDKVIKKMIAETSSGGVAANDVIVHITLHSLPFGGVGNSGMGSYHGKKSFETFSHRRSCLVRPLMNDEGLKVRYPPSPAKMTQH
Test: ALDH3A1 dehydrogenase assay
Type: biochemical
Settings: read-out: (Dehydrogenase assay) IC50; ALDH3A1, 1 mM benzaldehyde, […] NADP+, pH 7.5
measuredEndpoint: IC50 (µM)

>>> number("CCOC(=O)CN1C(=O)C(O)(CC(=O)c2ccncc2)c2ccccc21 (stereo not drawn) [CD8]")
6.3
>>> number("CC(=O)Nc1ccc(Nc2ccc(S(C)(=O)=O)cc2[N+](=O)[O-])cc1 [CB29]")
5
>>> number("CCSc1nnc2c(n1)OC(C(=O)c1ccc(OC)cc1)Nc1ccccc1-2 (stereo not drawn) [CD5]")
1.5
